The reported measurements were obtained from ChEMBL document CHEMBL3507680.

Assay: Human HepG2 cell viability assay in 384 well format
Format: toxicity, cell-based
Parameters: dose 125 nL, time 70.5 hour; concentration not given beside the values
Conditions: HepG2 cells, read-out: Inhibition
assay readout: cytotoxicity at 70.5 h (%)
Numbers only; they are read as %.

>  <compound>
Cc1c(S(=O)(=O)NCC(C)C)cnn1C

>  <units of measure>
%

>  <cytotoxicity at 70.5 h>
-14.3

$$$$
>  <compound>
COc1nn(C)c2c1CCCN(C(=O)c1ccc3c(c1)OCO3)C2.O=C(O)C(F)(F)F

>  <units of measure>
%

>  <cytotoxicity at 70.5 h>
77.9

$$$$
>  <compound>
Cc1cccc(NC(=O)[C@@H]2CCCN2Cc2ccccc2C#N)n1

>  <units of measure>
%

>  <cytotoxicity at 70.5 h>
-10.3

$$$$
>  <compound>
NC(=O)c1cc(C2CCCN(CCc3ccccn3)C2)n[nH]1 (stereo unspecified)

>  <units of measure>
%

>  <cytotoxicity at 70.5 h>
-10.6

$$$$
>  <compound>
CCc1cc(NC2CCN(CC(N)=O)CC2)nc(N2CCCCC2)n1

>  <units of measure>
%

>  <cytotoxicity at 70.5 h>
-2.44

$$$$
>  <compound>
CC(C)(O)CCc1cccc(C(=O)N[C@H](C(N)=O)c2ccccc2)c1

>  <units of measure>
%

>  <cytotoxicity at 70.5 h>
-11

$$$$
>  <compound>
Cc1ccc(C)c(OCCN2CCC(N3CCNC3=O)CC2)c1

>  <units of measure>
%

>  <cytotoxicity at 70.5 h>
-3.76

$$$$
>  <compound>
Cc1nc2ccccc2nc1CN1CCCCC1Cn1cncn1 (stereo unspecified)

>  <units of measure>
%

>  <cytotoxicity at 70.5 h>
-8.21

$$$$
>  <compound>
CC(C)c1ccc(C(O)Cn2c(=O)c(C#N)cn(C3CC3)c2=O)cc1 (stereo unspecified)

>  <units of measure>
%

>  <cytotoxicity at 70.5 h>
-3.45

$$$$
>  <compound>
CCn1cc(NC(=O)C(C)n2ncc(Cl)c2C)c(C(=O)OC)n1 (stereo unspecified)

>  <units of measure>
%

>  <cytotoxicity at 70.5 h>
-3.71

$$$$

Then this compound:
Task item: Look up and state reported cytotoxicity at 70.5 h for CCN1C(=O)CCCC12CCCN(C(=O)c1ccoc1)C2 (stereo unspecified)
Reply: -3.69
